Values were extracted from paper PMC3713010.

Target: Pax6 DNA-binding domain (BD-Pax6) (Mus musculus (B6), UniProt P63015 190-289)
Sequence (P63015 190-289): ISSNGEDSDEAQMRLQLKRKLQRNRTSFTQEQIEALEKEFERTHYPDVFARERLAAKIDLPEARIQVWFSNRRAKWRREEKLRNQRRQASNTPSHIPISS
Assay: EMSA; 10% glycerol, 20 mM HEPES pH 7.8, 45 mM KCl, 10 mM NaCl, 1 mM EDTA, 1 mM DTT, 0.2 ug/uL BSA, 0.1% NP-40, 50 ng poly-dIdC; 20 ng each GST protein; room temperature 30 min (heterodimers 4 C); 6% PAGE 0.25x TBE
Conditions: protein: recombinant; tags: GST (N-terminal, pGEX-6P-1); label: 32P-dCTP fill-in of the 5' (dG)5 overhangs of both strands (Methods; control probes are given with GGG)
attribute.measured: binding result

87 (dsDNA) DNA 1: GGGGGTTATGACTGTTTAATAATATATATTGTGTTCTGGCCCCCC DNA 2: GGGGGGCCAGAACACAATATATATTATTAAACAGTCATAACCCCC ... binds
84 (dsDNA) DNA 1: GGGGGTATGAATCACAATGTAAATATCTGTGTTTACCCCC DNA 2: GGGGGTAAACACAGATATTTACATTGTGATTCATACCCCC ... binds
114 (dsDNA) DNA 1: GGGGGTGATTTTTGCAAAATTTTGTTTTGTTTCTTGAGCCCCC DNA 2: GGGGGCTCAAGAAACAAAACAAAATTTTGCAAAAATCACCCCC ... no binding
100 (dsDNA) DNA 1: GGGGGCAACCAAAAAAAATGTATTTTACAAAAATCACAACCCCC DNA 2: GGGGGTTGTGATTTTTGTAAAATACATTTTTTTTGGTTGCCCCC ... binds
80 (dsDNA) DNA 1: GGGGGCATCCCAAATTGTTTTCTCACTTTTGTACCACAGATAGATCCCCC DNA 2: GGGGGATCTATCTGTGGTACAAAAGTGAGAAAACAATTTGGGATGCCCCC ... no binding
65 (dsDNA) DNA 1: GGGGGGTACTTGGTGATAATTTCATTGTCCACATGCCCCCC DNA 2: GGGGGGCATGTGGACAATGAAATTATCACCAAGTACCCCCC ... binds
15 (dsDNA) DNA 1: GGGGGAGATCTTTACAAATTTCTATATTAGAGTTTTTTGTCCCCC DNA 2: GGGGGACAAAAAACTCTAATATAGAAATTTGTAAAGATCTCCCCC ... no binding
57 (dsDNA) DNA 1: GGGGGCCTAAGATTCTTAATCTGACATTGTAGTCCCTACCCCC DNA 2: GGGGGTAGGGACTACAATGTCAGATTAAGAATCTTAGGCCCCC ... binds
5 (dsDNA) DNA 1: GGGGGTGTAGGTCATTGTGGCCTCAAATTTGGTAATGTAACCCCC DNA 2: GGGGGTTACATTACCAAATTTGAGGCCACAATGACCTACACCCCC ... no binding
